The reported numbers originate from patent US20070259879A1.

test system: HIV-1 pseudotyped virus; experiment: HIV-1 pseudotyped virus assay (luciferase reporter gene, single cycle of infection); type: cell-based; settings: Human immunodeficiency virus 1, CCR5, 72 h, read-out: Activity (antiviral activity, IC50)
pIC50: −log10 of the molar value.
Record form. Attribute: pIC50. Fill in for each entry.

Data request, read-out pIC50, for C[C@@H]1CN(C(=O)c2ccccc2)CCN1S(=O)(=O)c1ccc(-c2c[nH]nn2)cc1 [Example 120] > 5.30

Data request, read-out pIC50, for Cc1noc(-c2ccc(S(=O)(=O)N3CCN(C(=O)c4ccccc4)CC3C)s2)n1 (centres unmarked) [Example 107] < 5.30

Data request, read-out pIC50, for CC(=O)c1ccc(-c2ccc(C(=O)C(=O)N3CCN(C(=O)c4ccccc4)C[C@H]3C)cc2)s1 [Example 198] > 5.30

Data request, read-out pIC50, for CC1CN(C(=O)c2ccccc2)CCN1S(=O)(=O)c1cccc(-n2ccnn2)c1 (centres unmarked) [Example 113] < 5.30

Data request, read-out pIC50, for C[C@@H]1CN(C(=O)c2ccccc2)CCN1C(=O)C(=O)c1ccc(-c2cnco2)cc1 [Example 101] > 5.30

Data request, read-out pIC50, for CC(C)Cn1cc(-c2ccc(S(=O)(=O)N3CCN(C(=O)c4ccccc4)C[C@H]3C)cc2)nn1 [Example 121] < 5.30

Data request, read-out pIC50, for Cc1ccc(-c2ccc(C(=O)C(=O)N3CCN(C(=O)c4ccccc4)CC3C)cc2)o1 (centres unmarked) [Example 173] > 5.30

Data request, read-out pIC50, for C[C@@H]1CN(C(=O)c2ccccc2)CCN1C(=O)C(=O)c1ccc(-c2cc[nH]n2)cc1O [Example 223] > 5.30
